assay: Cytotoxicity against HUVEC assessed as cell viability at 100 uM after 24 hrs by MTT assay; assay type: cell-based; conditions: human, HUVEC cells; read-out: Activity
// values below are reported viability at 24 h, 100 µM
Answer in %, number only, no unit symbol.

{"SMILES NOTATION": "CCOC(=O)/C=C1/C(=O)N(CC(=O)OCC)c2ccccc21", "QUANTITY UNIT": "%", "viability at 24 h, 100 µM": 98}
{"SMILES NOTATION": "CCOC(=O)/C=C1/C(=O)Nc2ccc(Cl)cc21", "QUANTITY UNIT": "%", "viability at 24 h, 100 µM": 96}
{"SMILES NOTATION": "CCOC(=O)/C=C1/C(=O)N(CC(=O)OCC)c2ccc(Br)cc21", "QUANTITY UNIT": "%", "viability at 24 h, 100 µM": 97}
{"SMILES NOTATION": "CCOC(=O)/C=C1/C(=O)N(C(=O)OC)c2ccc(Br)cc21", "QUANTITY UNIT": "%", "viability at 24 h, 100 µM": 98}
{"SMILES NOTATION": "CCOC(=O)/C=C1/C(=O)N(CC(=O)OCC)c2ccc(Cl)cc21", "QUANTITY UNIT": "%", "viability at 24 h, 100 µM": 96}

// returns reported viability at 24 h, 100 µM for input CCOC(=O)/C=C1/C(=O)N(C(=O)OC)c2ccc(F)cc21
97

For CCOC(=O)/C=C1/C(=O)N(C(=O)OCC)c2ccccc21 , what is its reported viability at 24 h, 100 µM?
95

Which value of viability at 24 h, 100 µM has been reported for CCOC(=O)/C=C1/C(=O)Nc2ccccc21 in the records?
96

Suppose we examine the molecule CCOC(=O)/C=C1/C(=O)N(CC(=O)OCC)c2ccc(F)cc21 ; what viability at 24 h, 100 µM value has been reported?
97

Name the recorded viability at 24 h, 100 µM for CCOC(=O)/C=C1/C(=O)N(C(=O)OCC)c2ccc(F)cc21 .
96

Field request: viability at 24 h, 100 µM | item: CCOC(=O)/C=C1/C(=O)N(C(=O)OCC)c2ccc(Br)cc21
98

###

experiment: Cytotoxicity against HUVEC assessed as cell viability at 100 uM after 24 hrs by MTT assay; assay type: cell-based; conditions: human, HUVEC cells; read-out: Activity
Listed compounds paired with reported viability at 24 h, 100 µM
Quick note: give the figure in %, leave out the unit.

Some compounds with recorded viability at 24 h, 100 µM:
{"SMILES NOTATION": "CCOC(=O)/C=C1/C(=O)Nc2ccc(Br)cc21", "QUANTITY UNIT": "%", "viability at 24 h, 100 µM": 97}
{"SMILES NOTATION": "CCOC(=O)/C=C1/C(=O)N(CC(=O)OC)c2ccc(Cl)cc21", "QUANTITY UNIT": "%", "viability at 24 h, 100 µM": 97}
{"SMILES NOTATION": "CCOC(=O)/C=C1/C(=O)N(C(=O)OCC)c2ccc(Cl)cc21", "QUANTITY UNIT": "%", "viability at 24 h, 100 µM": 97}

Look up viability at 24 h, 100 µM for this compound: CCOC(=O)/C=C1/C(=O)Nc2ccc(F)cc21
95

Request the reported viability at 24 h, 100 µM associated with CCOC(=O)/C=C1/C(=O)N(C(=O)OC)c2ccc(Cl)cc21
96

Quick check: viability at 24 h, 100 µM of CCOC(=O)/C=C1/C(=O)N(CC(=O)OC)c2ccc(F)cc21 ?
96

Query: viability at 24 h, 100 µM; subject: CCOC(=O)/C=C1/C(=O)N(CC(=O)OC)c2ccc(Br)cc21
99

Need viability at 24 h, 100 µM, item CCOC(=O)/C=C1/C(=O)N(CC(=O)OC)c2ccccc21
97

GET /values?readout=viability at 24 h, 100 µM&item= CCOC(=O)/C=C1/C(=O)N(C(=O)OC)c2ccccc21
98
